Measured cell viability, listed per entry for reference.
System: K562
Assay: cell viability relative to vehicle control; higher = less cytotoxic;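 also: after 48 h exposure read by CellTiter-Glo luminescence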
Details: 10 µM; SRSF2 genotype: SRSF2 wt/wt
Counter-ions that a name gives are not always drawn.
Just the number please, in %, no unit attached.

These recorded examples may help you get a feel for the data.
C=C(C)[C@@H]1CC[C@]2(C(=O)O[C@@H]3O[C@H](CO[C@@H]4O[C@H](CO)[C@@H](O[C@@H]5O[C@@H](C)[C@H](O)[C@@H](O)[C@H]5O)[C@H](O)[C@H]4O)[C@@H](O)[C@H](O)[C@H]3O)CC[C@]3(C)[C@H](CC[C@@H]4[C@@]5(C)CC[C@H](O[C@@H]6OC[C@H](O)[C@H](O)[C@H]6O[C@@H]6O[C@@H](C)[C@H](O)[C@@H](O)[C@H]6O)[C@@](C)(CO)[C@@H]5CC[C@]43C)[C@@H]12 [Anemoside B4]: 92
COc1ccc(CNc2nc(N3CCC[C@H]3CO)ncc2C(=O)NCc2ncccn2)cc1Cl [Avanafil]: 98.8

Quick one: cell viability of CCC(=O)OCC(=O)[C@@]1(OC(=O)CC)[C@@H](C)C[C@H]2[C@@H]3CCC4=CC(=O)C=C[C@]4(C)[C@@]3(F)[C@@H](O)C[C@@]21C [Betamethasone Dipropionate (Diprolene)] ?
98.8

Record: Nc1nccc(Oc2ccc3c(C(=O)Nc4cccc(C(F)(F)F)c4)cccc3c2)n1
87.9

Entry CN(C)CCC(c1ccc(Cl)cc1)c1ccccn1 (stereo unspecified) [Chlorpheniramine Maleate] please
98.2

Moving on to C[N+]12CCc3cc4c(cc3C1(O)Cc1ccc3c(c1C2)OCO3)OCO4 (stereo unspecified) [Hydroprotopine]
89.5

Entry O=C(O)[C@]1(Cc2cccc(Nc3nccs3)n2)CC[C@@H](Oc2cccc(Cl)c2F)CC1 please
18.6

Same again, this time with C=C[C@@H]1CNC(=S)O1 [Epigoitrin]
101

---

System: OCI-AML2
Assay: cell viability relative to vehicle control; higher = less cytotoxic
Conditions: 10 µM; SRSF2 genotype: P95H/wt
Where a name gives a salt, the structure may show the parent alone.
observable: cell viability (%)
I only need the number, in %, no unit after it.

Some solved cases for reference:
COc1ccc(-c2ccc3c(N4CCOCC4)nc(N4C[C@@H](C)O[C@@H](C)C4)nc3n2)cc1CO: 33.4
CCc1cnn2c(NCc3ccc[n+]([O-])c3)cc(N3CCCC[C@H]3CCO)nc12: 5.12
CC(=O)O[C@]1(C(C)=O)CC[C@H]2[C@@H]3C=C(C)C4=CC(=O)CC[C@]4(C)[C@H]3CC[C@@]21C [Megestrol Acetate]: 61.8
COc1ccc(C2=NC(c3ccc(Cl)cc3)C(c3ccc(Cl)cc3)N2C(=O)N2CCNC(=O)C2)c(OC(C)C)c1 (centres undefined) [Nutlin-3b]: 84.5
CC(=O)C1=C(O)C=C2Oc3c(C(C)=O)c(O)c(C)c(O)c3C2(C)C1=O (single isomer, unassigned; (+)) [(+)-Usniacin (D-Usnic acid)]: 90.8
O=C1NCCc2[nH]c(-c3ccncc3)cc21: 4.1
O=C(NNc1ccccc1)c1ccncc1: 92.7
COc1cc2nccc(Oc3ccc(NC(=O)Nc4cc(C)on4)c(Cl)c3)c2cc1OC [Tivozanib (AV-951)]: 26.1

Entry CCc1cc2c(cc1N1CCC(N3CCOCC3)CC1)C(C)(C)c1[nH]c3cc(C#N)ccc3c1C2=O has what cell viability?
71.7

Can you handle CNC(CC(=O)O)C(=O)O [NMDA (N-Methyl-D-aspartic acid)] next?
94.4

Next up: O=c1cc(-c2ccc(O)cc2)oc2cc(O)c([C@@H]3O[C@H](CO)[C@@H](O)[C@H](O)[C@H]3O)c(O)c12 [Isovitexin]
99.7

Can you check O=C(c1cccc(Cl)c1F)N1CCN(Cc2cccc(Nc3nccs3)n2)CC1 next?
35.6

Also need O=C(NC(NC(=S)Nc1ccc(F)c([N+](=O)[O-])c1)C(Cl)(Cl)Cl)C(c1ccccc1)c1ccccc1 (centres undefined) , thanks.
1.61

Same again, this time with O=c1n(CCCN2CCN(c3cccc(Cl)c3)CC2)nc2ccccn12 [Trazodone hydrochloride (Desyrel)]
106

Moving on to the next compound: COC(=O)C1(C)CCC2(C(=O)O)CCC3(C)C(=CCC4C5(C)CC(O)C(O)C(C)(CO)C5CCC43C)C2C1 (centres undefined) [Phytolaccagenin]
105

Check Cc1c[nH]c(=O)[nH]c1=O [Thymine] too.
106

Now consider N#Cc1c(Oc2ccc(F)c(NC(=O)Cc3cccc(C(F)(F)F)c3)c2)ccc2nc(NC(=O)C3CC3)sc12 and answer again.
31.6

Cool, now CC(=O)OCCc1ccc(O)c(O)c1 [Hydroxytyrosol Acetate]
108

Now consider Cc1ccc2c(c1)c1c(n2CCc2ccc(C)nc2)CCN(C)C1 [Latrepirdine 2HCl] .
73.7

Also Cc1ccc(C(C)C)cc1O [Carvacrol] , if possible.
92.8

Record: CCCCOc1cc(C(=O)NCCN(CC)CC)c2ccccc2n1 [Dibucaine (Cinchocaine) HCl]
93.2

Likewise for C=CC(=O)N1CCC[C@@H](n2nc(-c3ccc(Oc4ccccc4)cc3)c3c(N)ncnc32)C1 ?
44.3
